Data credit: ChEMBL document CHEMBL1133087

- System: Mus musculus
- EXPERIMENT_SUMMARY: Biodistribution was studied by injecting intravenously into C57B1/6 mice bearing subcutaneously transplanted B16 melanoma after 6 hr.
- Assay type: ADME, organism-based
- MEASUREMENT_PARAMETERS: in vivo, iv
Each record is given true if its reported ID/g is strictly below 7%. Records at or above 7% are given false.

test_smiles=CCN(CC)CCNC(=O)c1ccc(NC(C)=O)c(I)c1 class_assignment=true
test_smiles=CCN(CC)CCNC(=O)c1cc(OC)ccc1I class_assignment=true
test_smiles=CCN(CC)CCNC(=O)c1cc(I)c(NC(C)=O)cc1OC class_assignment=false
test_smiles=CCN(CC)CCNC(=O)c1cc(Br)c(N)c(I)c1OC class_assignment=false
test_smiles=CCN(CC)CCNC(=O)c1ccc(OC)c(I)c1 class_assignment=true

* * *

- Test system: Mus musculus
- EXPERIMENT_SUMMARY: Biodistribution was studied by injecting intravenously into C57B1/6 mice bearing subcutaneously transplanted B16 lung after 6 hr.
- Assay type: ADME, organism-based
- MEASUREMENT_PARAMETERS: in vivo, iv
Each record is given 1.0 if its reported ID/g is strictly below 2%. Records at or above 2% are given 0.0.

test_smiles=CCN(CC)CCNC(=O)c1cc(I)c(N)cc1OC class_assignment=1.0
test_smiles=CCN(CC)CCNC(=O)c1cc(I)c(NC(C)=O)cc1OC class_assignment=0.0
test_smiles=CCN(CC)CCNC(=O)c1cc(OC)ccc1I class_assignment=1.0
test_smiles=CCN(CC)CCNC(=O)c1ccc(OC)c(I)c1 class_assignment=1.0
test_smiles=CCN(CC)CCNC(=O)c1ccc(NC(C)=O)c(I)c1 class_assignment=1.0
test_smiles=CCN(CC)CCNC(=O)c1cc(I)ccc1OC class_assignment=1.0
test_smiles=CCN(CC)CCNC(=O)c1cc(Br)c(N)c(I)c1OC class_assignment=0.0

* * *

# key: entry, value: ID/g
- System: Mus musculus
- EXPERIMENT_SUMMARY: Biodistribution was studied by injecting intravenously into C57B1/6 mice bearing subcutaneously transplanted B16 brain after 1 hr.
- Assay type: ADME, organism-based
- MEASUREMENT_PARAMETERS: in vivo, iv
PARAMETER_MEASURED: ID/g (%)

test_smiles=CCN(CC)CCNC(=O)c1ccc(OC)c(I)c1 measurement=0.1
test_smiles=CCN(CC)CCNC(=O)c1cc(I)c(NC(C)=O)cc1OC measurement=0.62
test_smiles=CCN(CC)CCNC(=O)c1cc(Br)c(N)c(I)c1OC measurement=0.64
test_smiles=CCN(CC)CCNC(=O)c1cc(I)c(N)cc1OC measurement=0.18
test_smiles=CCN(CC)CCNC(=O)c1cc(I)ccc1OC measurement=0.5
test_smiles=CCN(CC)CCNC(=O)c1cc(OC)ccc1I measurement=0.15
test_smiles=CCN(CC)CCNC(=O)c1ccc(NC(C)=O)c(I)c1 measurement=0.48

* * *

# key: entry, value: ID/g
- Test system: Mus musculus
- EXPERIMENT_SUMMARY: Biodistribution was studied by injecting intravenously into C57B1/6 mice bearing subcutaneously transplanted B16 muscle after 6 hr.
- Type: ADME, organism-based, Muscle tissue
- MEASUREMENT_PARAMETERS: in vivo, iv
PARAMETER_MEASURED: ID/g

test_smiles=CCN(CC)CCNC(=O)c1cc(Br)c(N)c(I)c1OC measurement=0.43%
test_smiles=CCN(CC)CCNC(=O)c1ccc(OC)c(I)c1 measurement=0.03%
test_smiles=CCN(CC)CCNC(=O)c1cc(I)c(NC(C)=O)cc1OC measurement=0.44%
test_smiles=CCN(CC)CCNC(=O)c1cc(I)c(N)cc1OC measurement=0.28%
test_smiles=CCN(CC)CCNC(=O)c1ccc(NC(C)=O)c(I)c1 measurement=0.44%
test_smiles=CCN(CC)CCNC(=O)c1cc(OC)ccc1I measurement=0.08%
test_smiles=CCN(CC)CCNC(=O)c1cc(I)ccc1OC measurement=0.04%

* * *

# key: entry, value: ID/g
- Test system: Mus musculus
- EXPERIMENT_SUMMARY: Biodistribution was studied by injecting intravenously into C57B1/6 mice bearing subcutaneously transplanted B16 lung after 1 hr.
- Assay type: ADME, organism-based
- MEASUREMENT_PARAMETERS: in vivo, iv
PARAMETER_MEASURED: ID/g (%)

test_smiles=CCN(CC)CCNC(=O)c1cc(I)c(NC(C)=O)cc1OC unit_info=% measurement=5.53
test_smiles=CCN(CC)CCNC(=O)c1cc(OC)ccc1I unit_info=% measurement=1.41
test_smiles=CCN(CC)CCNC(=O)c1cc(I)c(N)cc1OC unit_info=% measurement=3.12
test_smiles=CCN(CC)CCNC(=O)c1cc(I)ccc1OC unit_info=% measurement=1.15
test_smiles=CCN(CC)CCNC(=O)c1ccc(NC(C)=O)c(I)c1 unit_info=% measurement=7.98
test_smiles=CCN(CC)CCNC(=O)c1cc(Br)c(N)c(I)c1OC unit_info=% measurement=3.16
test_smiles=CCN(CC)CCNC(=O)c1ccc(OC)c(I)c1 unit_info=% measurement=0.69

* * *

- Test system: Mus musculus
- EXPERIMENT_SUMMARY: Biodistribution was studied by injecting intravenously into C57B1/6 mice bearing subcutaneously transplanted B16 spleen after 1 hr.
- Assay type: ADME, organism-based
- MEASUREMENT_PARAMETERS: in vivo, iv
PARAMETER_MEASURED: ID/g (%)

test_smiles=CCN(CC)CCNC(=O)c1cc(I)c(NC(C)=O)cc1OC experimental_target="Mus musculus" unit_info=% measurement=6.55
test_smiles=CCN(CC)CCNC(=O)c1ccc(OC)c(I)c1 experimental_target="Mus musculus" unit_info=% measurement=0.39
test_smiles=CCN(CC)CCNC(=O)c1cc(OC)ccc1I experimental_target="Mus musculus" unit_info=% measurement=1.26
test_smiles=CCN(CC)CCNC(=O)c1cc(I)c(N)cc1OC experimental_target="Mus musculus" unit_info=% measurement=2
test_smiles=CCN(CC)CCNC(=O)c1cc(Br)c(N)c(I)c1OC experimental_target="Mus musculus" unit_info=% measurement=5.06
test_smiles=CCN(CC)CCNC(=O)c1ccc(NC(C)=O)c(I)c1 experimental_target="Mus musculus" unit_info=% measurement=5.62
test_smiles=CCN(CC)CCNC(=O)c1cc(I)ccc1OC experimental_target="Mus musculus" unit_info=% measurement=2.5

* * *

# key: entry, value: ID/g
- Tested on: Mus musculus
- EXPERIMENT_SUMMARY: Biodistribution was studied by injecting intravenously into C57B1/6 mice bearing subcutaneously transplanted B16 brain after 6 hr.
- Format: ADME, organism-based
- MEASUREMENT_PARAMETERS: in vivo, iv
PARAMETER_MEASURED: ID/g

test_smiles=CCN(CC)CCNC(=O)c1cc(Br)c(N)c(I)c1OC experimental_target="Mus musculus" measurement=0.15%
test_smiles=CCN(CC)CCNC(=O)c1ccc(NC(C)=O)c(I)c1 experimental_target="Mus musculus" measurement=0.09%
test_smiles=CCN(CC)CCNC(=O)c1cc(I)c(N)cc1OC experimental_target="Mus musculus" measurement=0.08%
test_smiles=CCN(CC)CCNC(=O)c1cc(I)c(NC(C)=O)cc1OC experimental_target="Mus musculus" measurement=0.19%
